System: A549
Assay: Cytotoxicity against human A549 cells assessed as reduction in cell viability after 72 hrs by CCK8 assay
Format: functional, cell-based
The source made the active and inactive calls. The rule behind the calls is not given here.
Property Label: Activity

1) CC[C@H]1O[C@@H]2O[C@H](/C=C/C=C\C=C\c3oc(=O)cc(OC)c3C)[C@H](O)[C@]2(C)[C@@]1(C)O ... inactive
2) Cc1oc(=O)c2c(c1C)O[C@@]1(C)[C@@H]([C@@H](C)[C@]3(O)CC(=O)C(C)(C)C(=O)[C@@]3(O)[C@H]1O)[C@H]2O ... inactive
3) CO[C@H]1c2c(c(C)c(C)oc2=O)O[C@@]2(C)[C@H]1[C@@H](C)[C@]1(O)CC(=O)C(C)(C)C(=O)[C@@]1(O)[C@H]2O ... inactive

* * *

Field: CC50 at 48 h. Provide a value for each of the molecules that follow.
Assay: Cytotoxicity against MDCK cells after 48 hrs by crystal violet staining-based microplate reader analysis
Type: cell-based, Canis lupus familiaris
Conditions: dog
Don't forget the unit after the number, please.

INPUT: Any idea what CC50 at 48 h was measured for "CO[C@H]1c2c(c(C)c(C)oc2=O)O[C@@]2(C)[C@H]1[C@@H](C)[C@]1(O)CC(=O)C(C)(C)C(=O)[C@@]1(O)[C@H]2O" ?
OUTPUT: 20.9 µM

INPUT: Repeat for the following molecule: "CC[C@H]1O[C@@H]2O[C@H](/C=C/C=C/C=C/c3oc(=O)cc(OC)c3C)[C@H](O)[C@]2(C)[C@@]1(C)O"
OUTPUT: 0.24 µM

INPUT: Repeat for the following molecule: "CC[C@H]1O[C@@H]2O[C@H](/C=C/C=C\C=C\c3oc(=O)cc(OC)c3C)[C@H](O)[C@]2(C)[C@@]1(C)O"
OUTPUT: 0.54 µM
